Ref: PubChem BioAssay

For each record, write down the corresponding inhibition.
target: L-lactate dehydrogenase (Plasmodium falciparum (isolate CDC / Honduras)) (UniProt Q27743); assay: PfLDH activity inhibition – cell lysate, 3D7 strain, counter-screen for P. falciparum growth inhibition project (AID 2304);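 note: 0% = vehicle and 100% = reference inhibitor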; conditions: P. falciparum 3D7 crude extract, LDH APAD/NBT absorbance; at 2 µM; hits give high values
Sequence (Q27743 whole entry, looked up): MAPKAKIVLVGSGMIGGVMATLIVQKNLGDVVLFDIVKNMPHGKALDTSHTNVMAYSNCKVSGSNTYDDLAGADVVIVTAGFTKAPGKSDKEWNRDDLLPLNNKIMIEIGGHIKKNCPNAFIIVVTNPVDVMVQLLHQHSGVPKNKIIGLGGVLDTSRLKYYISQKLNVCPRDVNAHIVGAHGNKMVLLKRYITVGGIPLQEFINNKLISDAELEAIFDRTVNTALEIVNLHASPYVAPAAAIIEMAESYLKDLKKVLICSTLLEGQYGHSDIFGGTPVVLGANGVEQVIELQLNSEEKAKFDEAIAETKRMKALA
Numbers only, in %.

Take a look at these entries with their results.
>>> assay_result("CN(C)CC1CCCN1Cc1ccccc1-c1cnn(C)c(=O)c1Oc1ccc(F)cc1 (stereo not given)")
2
>>> assay_result("Cc1cc(OCC(=O)Nc2ccc(-c3nc4ccccc4[nH]3)cc2)cc(C)c1Cl")
-1
>>> assay_result("COc1cc(NC(=O)c2sc(-c3ccc(Cl)cc3)cc2NC(=O)c2cccnc2)ccc1OCCN1CCCC1")
-1
>>> assay_result("N#Cc1cccc(NC(=O)Nc2cccc(-c3cccc(-c4nc5ccccc5[nH]4)c3)c2)c1")
3

Let us examine a further case.
Fill in the recorded inhibition for this molecule, with L-lactate dehydrogenase (Plasmodium falciparum (isolate CDC / Honduras)) (UniProt Q27743) as test system: CCn1c(-c2cc(C)on2)nc2cnc(Oc3ccc(C(=O)N4CC(=O)N(C)C4C(C)(C)C)cc3)cc21 (stereo not given)
4
